# EXPERIMENTAL_TARGET: T1, recombinant human IL-23 (human, UniProt Q9NPF7 20-189; P29460 23-328)
# T1 construct: Heterodimer of p19 and p40; also called hIL-23; interleukin-23; not shown: single C-terminal 6xHis tag
# T1 sequence 1: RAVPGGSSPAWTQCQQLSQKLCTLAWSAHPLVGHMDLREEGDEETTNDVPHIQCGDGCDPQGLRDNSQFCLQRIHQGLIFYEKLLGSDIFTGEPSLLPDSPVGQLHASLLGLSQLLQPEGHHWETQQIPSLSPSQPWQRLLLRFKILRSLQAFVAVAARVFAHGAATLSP
# T1 sequence 2: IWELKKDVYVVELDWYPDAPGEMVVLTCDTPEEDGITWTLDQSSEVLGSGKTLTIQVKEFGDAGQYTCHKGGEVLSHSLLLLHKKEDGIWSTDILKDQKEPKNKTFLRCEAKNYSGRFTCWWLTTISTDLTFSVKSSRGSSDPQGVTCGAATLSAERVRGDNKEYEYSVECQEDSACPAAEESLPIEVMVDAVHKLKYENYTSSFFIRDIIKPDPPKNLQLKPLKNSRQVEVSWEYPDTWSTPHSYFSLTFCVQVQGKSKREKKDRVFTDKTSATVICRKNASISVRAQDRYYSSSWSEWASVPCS
# EXPERIMENT_SUMMARY: IL-23-IL-23R neutralisation ELISA
QUANTITY_KIND: EC50 (nM)
Unit nM implied. Number only.

Tell me its EC50 given ID-L250T (VHH, Relative to ID-L253T: D1E, V40A, R45L, L47F, D58H) VHH: EVQLVESGGGQVQPGGSLSLSCESSVSIWSFKVMGWFRQAPGKQLEFVATITTGGSPHYSDSVKGRFTISRDYDKRTLYLQMNSLKPEDTAVYYCAGRLWAHITSSGHDVWGQGTQVTVSS as the entry.
6.95

Tell me its EC50 given ID-L245T (VHH, Relative to ID-L253T: D1E) VHH: EVQLVESGGGQVQPGGSLSLSCESSVSIWSFKVMGWFRQVPGKQRELVATITTGGSPDYSDSVKGRFTISRDYDKRTLYLQMNSLKPEDTAVYYCAGRLWAHITSSGHDVWGQGTQVTVSS as the entry.
0.25
